assayedTarget: CRP (Escherichia coli, UniProt P0ACJ8 1-210)
Sequence (P0ACJ8 whole entry): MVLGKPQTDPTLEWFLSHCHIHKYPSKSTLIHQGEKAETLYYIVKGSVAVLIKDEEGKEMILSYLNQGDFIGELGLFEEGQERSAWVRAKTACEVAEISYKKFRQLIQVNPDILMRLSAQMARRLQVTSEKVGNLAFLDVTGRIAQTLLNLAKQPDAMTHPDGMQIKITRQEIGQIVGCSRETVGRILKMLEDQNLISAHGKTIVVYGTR
assayOverview: EMSA; cAMP (200 pmol in 20 ul); Roche binding buffer (composition not given), 15 min, room temperature; FadR: 0.1 pmol probe in 10 ul, 0-10 pmol protein, 7% native PAGE; CRP: 0.6 pmol probe in 20 ul (legend; Methods say 0.1 or 0.2 pmol), 5-20 pmol protein, 6.5% native PAGE
testSettings: protein: recombinant; tags: His6 (pET28); chain copies: 2; label: DIG-ddUTP 3' (terminal transferase); blunt
quantity: binding result

1. fadH CRP site 1 (probe 1) (dsDNA) DNA 1: GTAACCTGGATAAAACGCGACAAGCGTCGCATCCGGCGTTATCACCGG DNA 2: CCGGTGATAACGCCGGATGCGACGCTTGTCGCGTTTTATCCAGGTTAC | binds
2. fadD CRP site (dsDNA) DNA 1: GTAAAGATAAAAATAAATAGTGACGCGCTTCGCAACCTTTTCGTTGGG DNA 2: CCCAACGAAAAGGTTGCGAAGCGCGTCACTATTTATTTTTATCTTTAC | binds
3. fadH CRP site 2 (probe 2) (dsDNA) DNA 1: CACCGGGCGTATTCTTTTTGAATCCCATCACAAACCCCGCACTCC DNA 2: GGAGTGCGGGGTTTGTGATGGGATTCAAAAAGAATACGCCCGGTG | binds
